B1: SERPINB5 (parent)
chain: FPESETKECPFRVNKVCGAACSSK

Variants of: B1
Test: protein stability index of a GFP-peptide fusion (GPS, HEK-293T) (PSI 1-6); higher = more stable;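 further: lentivirally expressed fusions sorted by FACS into six bins by GFP to DsRed ratio, PSI derived from sequencing read proportions per bin multiplied by bin number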
Conditions: c terminus: a fixed tail appended
MEASURED_QUANTITY: protein stability index
Give a plain numeric answer without units written out.

# count of solved cases: 5
{"columns": ["SEQUENCE_CHAIN", "protein stability index"],
 "data": [
  ["FPESETKECPFRVNKVEGAACSSK", 2.98],
  ["FPESETKECVFRVNKVCGAACSSK", 3.05],
  ["FPESETTECPFRVNKVCGAACSSK", 3.1],
  ["FPESETKECPFRVNVVCGAACSSK", 2.1],
  ["FPESETKECPFRVNKMCGAACSSK", 2.18]
]}

Consider FQESETKECPFRVNKVCGAACSSK . Its measured protein stability index is 3.73

For record FPESETKECPFGVNKVCGAACSSK the listed protein stability index is 4.11

Kindly note the recorded protein stability index for FPEMETKECPFRVNKVCGAACSSK , which is 2.48

Measured protein stability index, FPESETKECPFRVNKVCFAACSSK : 2.09

Entry FPEHETKECPFRVNKVCGAACSSK — recorded protein stability index = 2.62

Memo: FPESETKECPFRVHKVCGAACSSK , reported protein stability index: 3.27

Record FPKSETKECPFRVNKVCGAACSSK , field protein stability index: 2.09

// FPESETKECPERVNKVCGAACSSK : protein stability index value = 4.43

Lab note: FPESETKECPFRVNKVCGAACSSN gave protein stability index of 1.89

protein stability index measured on PPESETKECPFRVNKVCGAACSSK = 4.52

Record FPESETKECFFRVNKVCGAACSSK . Reported protein stability index: 2.55
